Measured values drawn from patent US7118895B2 for this set.

Decomposition efficiency of daidzin family in concentrated soybean protein by entry:
Test system: Crude diglycosidase
protocol.summary: Examination of temperature in the conversion into isoflavone aglycons by diglycosidase using soybean materials
Type: biochemical, Penicillium multicolor IAM7153
stated.conditions: 80° C., heat treatment of enzyme no, reaction time 3 h
experimental.readout: Decomposition efficiency of daidzin family in concentrated soybean protein

CC(=O)OC[C@H]1O[C@@H](Oc2ccc3c(=O)c(-c4ccc(O)cc4)coc3c2)[C@H](O)[C@@H](O)[C@@H]1O : 44.7%
O=c1c(-c2ccc(O)cc2)coc2cc(O)ccc12 : 32.0%
O=c1c(-c2ccc(O)cc2)coc2cc(O[C@@H]3O[C@H](CO)[C@@H](O)[C@H](O)[C@H]3O)ccc12 : 23.3%
